Documented growth inhibition across a set of compounds
assay: inhibition of 3D7 malaria parasite growth – strain 3D7 (AID 2306);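 note: 0% = DMSO wells and 100% = chloroquine plus artemisinin control wells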; conditions: P. falciparum 3D7 erythrocytic growth, LDH absorbance, 72 h; at 2 µM; stronger effect = higher value
Numbers only here, please. The scale is %.

Worked examples follow.
{"columns": ["COMPOUND", "growth inhibition, %"],
 "data": [
  ["Cc1cc(NC(=O)NCCN2CCC(NS(=O)(=O)c3ccc(Br)cc3)C2)c2ccccc2n1 (centres undefined)", 99],
  ["CCCCCC(NCCCC)c1ccc(OCCOc2ccc(C(CCCCC)NCCCC)cc2)cc1 (centres undefined)", 88],
  ["CCOc1c(CCNCCCCNCCc2ccc3ccccc3c2OCC)ccc2ccccc12", 94]
]}

Exercise: Request the reported growth inhibition associated with NC1=NC2(CCCCC2)N(OCCOc2ccc(Cc3ccccc3)cc2)C(N)=N1
Key: 86

====

target: L-lactate dehydrogenase (Plasmodium falciparum (isolate CDC / Honduras)) (UniProt Q27743); test: PfLDH activity inhibition – cell lysate, 3D7 strain, counter-screen for P. falciparum growth inhibition project (AID 2304);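 note: 0% = vehicle and 100% = reference inhibitor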; settings: P. falciparum 3D7 crude extract, LDH APAD/NBT absorbance; at 2 µM; stronger effect = higher value
Sequence (Q27743 whole entry, looked up): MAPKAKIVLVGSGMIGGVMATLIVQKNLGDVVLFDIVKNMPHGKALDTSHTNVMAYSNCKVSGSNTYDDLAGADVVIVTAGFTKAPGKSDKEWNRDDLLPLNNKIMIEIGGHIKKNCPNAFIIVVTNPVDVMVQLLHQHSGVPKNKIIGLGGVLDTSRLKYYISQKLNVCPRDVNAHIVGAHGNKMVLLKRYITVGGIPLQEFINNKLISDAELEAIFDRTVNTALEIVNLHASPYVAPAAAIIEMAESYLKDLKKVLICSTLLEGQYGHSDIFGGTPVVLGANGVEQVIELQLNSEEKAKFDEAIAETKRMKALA
Documented inhibition across a set of molecules
Numbers only here, please. The scale is %.

Worked examples follow.
{"columns": ["MOLECULE", "UNITS_OF_MEASURE", "inhibition"],
 "data": [
  ["COc1ccc2ccc(OC)c(CNCCCCCCNCc3c(OC)ccc4ccc(OC)cc34)c2c1", "%", -6],
  ["Cc1cc(NCCC(=O)Nc2ccccc2)nc(NCc2ccccc2C)n1", "%", -1],
  ["CCCN(CC)CCOC(=O)c1ccccc1", "%", -4],
  ["COc1ccc2nccc(N3CCC(CCNCc4ccc5c(n4)NC(=O)CS5)CC3)c2n1", "%", -1]
]}

Exercise: Request the reported inhibition associated with Cc1[nH]c(C)c(-c2ccc(-c3cccc(Cl)c3)nc2)c(=O)c1Cl
Key: 0

Exercise: Repeat for the following molecule: CC(=O)Nc1cccc(CNCc2ccc(-c3cnc(N4CCCC(C)(C)C4)nc3)cc2)c1
Key: 0

Exercise: Repeat for the following molecule: COc1ccc(N2C(=O)C3C(C2=O)C2(C)c4ccccc4C3(C)c3ccccc32)c([N+](=O)[O-])c1 (stereo not given)
Key: 7

Exercise: Repeat for the following molecule: Cc1nc(-c2ccc(C(F)(F)F)cn2)sc1C(=O)N1CCc2cc3nccc(N4CCN5CCC[C@H]5C4)c3cc21
Key: 0

Exercise: Repeat for the following molecule: Oc1ccc(CCNc2nc(NCCOc3ccccc3-c3ccccc3)nc(N3CCNCC3)n2)cc1
Key: -1

====

experiment: inhibition of 3D7 malaria parasite growth – strain 3D7 (AID 2306);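 note: 0% = DMSO wells and 100% = chloroquine plus artemisinin control wells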; details: P. falciparum 3D7 erythrocytic growth, LDH absorbance, 72 h; at 2 µM; stronger effect = higher value
MEASUREMENT_KIND: growth inhibition (%)
Numbers only here, please. The scale is %.

Worked examples follow.
{"columns": ["ENTRY_SMILES", "EXPERIMENTAL_VALUE"],
 "data": [
  ["COc1cc(Cc2cnc(N)nc2N)c2c(c1OC)OC(C)(C)C=C2", 93],
  ["COc1ccc(NC(=O)[C@H](CC(C)C)Nc2cc(C)nc(NCCOc3ccccc3)n2)cc1", 100]
]}

Exercise: Request the reported growth inhibition associated with CN1CCc2ccc(NC(=O)Nc3ccc(Cl)c(Cl)c3)cc2C1
Key: 80
